# Test system: Staphylococcus aureus
# ASSAY_INFO: Antibacterial activity against methicillin-resistant Staphylococcus aureus USA300 after 24 hrs by broth microdilution assay
# Type: functional
# CONDITION_INFO: USA300, 24 h
METRIC_NAME: MIC (µg/mL)
I only need the number, in µg/mL, no unit after it.

For orientation, consider the following solved cases.
• CC[C@H](C)CCCc1c(O)ccc2c1O[C@]1(NC(=O)C(Cl)=C1Cl)C2=O = 8
• CCCCCCc1c(O)ccc(C(=O)c2cc(Cl)c(Cl)[nH]2)c1O = 1
• CC(C)CCCc1c(O)ccc2c1O[C@@]1(C=C(Cl)C(=O)N1C)C2=O = 16
• CCCCCCc1c(O)ccc2c1O[C@]1(NC(=O)C(Cl)=C1Cl)C2=O = 16

Provide one value: measured MIC of `CC(C)CCCc1c(O)ccc2c1O[C@]1(C2=O)C(Cl)=C(Cl)C(=O)N1C`
2

====

# System: Staphylococcus aureus
# ASSAY_INFO: Antibacterial activity against methicillin-resistant Staphylococcus aureus USA300 after 24 hrs by broth microdilution assay
# Type: functional
# CONDITION_INFO: USA300, 24 h
METRIC_NAME: MIC (µg/mL)
Lab book: enter the figure in µg/mL, no units written.

Please review the following examples before continuing.
* CC[C@H](C)CCCc1c(O)ccc2c1O[C@]1(C2=O)C(Cl)=C(Cl)C(=O)N1C [ARMENIASPIROLE C] | 0.5
* CCCCCCc1c(O)ccc2c1O[C@@]1(C=C(Cl)C(=O)N1C)C2=O | 8
* CC[C@H](C)CCCc1c(O)ccc(C(=O)c2cc(Cl)c(Cl)[nH]2)c1O | 2
* CCCCCCc1c(O)ccc2c1O[C@]1(C2=O)C(Cl)=C(Cl)C(=O)N1C [ARMENIASPIROLE A] | 0.5
* CC[C@H](C)CCCc1c(O)ccc2c1O[C@@]1(C=C(Cl)C(=O)N1C)C2=O | 8

Complete the entry with MIC for `CC(C)CCCc1c(O)ccc2c1O[C@]1(NC(=O)C(Cl)=C1Cl)C2=O`
16

Give MIC for the following molecule: `CC(C)CCCc1c(O)ccc(C(=O)c2cc(Cl)c(Cl)[nH]2)c1O`
1
